Target: T1, Duffy Antigen Receptor for Chemokines (DARC) (human) (UniProt Q16570)
T1 sequence (looked up): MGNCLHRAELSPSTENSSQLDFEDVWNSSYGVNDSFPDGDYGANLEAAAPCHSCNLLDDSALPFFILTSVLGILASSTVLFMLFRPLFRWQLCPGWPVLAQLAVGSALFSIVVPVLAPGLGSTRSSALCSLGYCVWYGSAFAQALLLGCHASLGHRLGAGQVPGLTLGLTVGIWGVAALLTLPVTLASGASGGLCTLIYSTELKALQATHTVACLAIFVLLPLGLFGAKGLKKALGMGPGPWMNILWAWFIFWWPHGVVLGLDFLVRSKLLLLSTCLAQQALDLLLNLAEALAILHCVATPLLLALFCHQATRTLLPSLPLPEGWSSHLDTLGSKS
Assay: DARC binding; given as 'affinity constant'
Measured Attribute: Kd (µM)

binder="WVQ [Peptide 3(10-12)[MCP-1], i.e., WVQ]" measured_attribute=Kd readout_number=2

Origin of measurements: patent US7067117
